- METHOD SUMMARY: NCI Yeast Anticancer Drug Screen. Data for the sgs1 mgt1 strain (AID 161);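 further: 0% = growth of cultures given vehicle only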
- CONDITION NOTES: S. cerevisiae sgs1 mgt1 strain, at 50.0 µM
This is part of a sample that, as a whole, favours compounds with a hit. Of some 79,000 tested, about 15% had one in any assay. The source made the active and inactive calls. No stated cut-off is given here; in the data, active means growth inhibition above about 70%; inactive means the rest.
Allowed answers: active, inactive

Please review the following examples before continuing.
CCCCC(CCCC)=NNC(=S)SC; inactive
Oc1c(Cl)cc(Cl)cc1C=NCCSc1ccc(Cl)cc1; active
NNC(=O)N/N=C(\CC1(O)C(=O)Nc2c(Cl)ccc(Cl)c21)c1ccc(F)cc1 (stereo not given); inactive
O=[N+]([O-])c1ccc(/C=N/NC2=CS(=O)(=O)C=C2)cc1; inactive
COc1cc(C(=O)[O][Sn]([c]2ccccc2)([c]2ccccc2)[c]2ccccc2)cc(OC)c1OC; active

What was the test verdict on "O=C(O)CCC(c1ccccc1)(c1ccccc1)c1ccccc1" ?
active

What was the test verdict on "Cc1cc(Cl)c(O)c(-c2cc(-c3ccccc3O)c(C#N)c(N)n2)c1" ?
inactive

What was the test verdict on CN(C)c1ccc(C2CC(C)(N3CCCC3)Oc3cc4c(cc32)OCO4)cc1 (stereo not given) ?
inactive

What was the test verdict on CC12CCC3C(CCC4CC(O)CCC43C)C1CC1C2=NOC1O (stereo not given) ?
active

What was the test verdict on "[CH3][Sn]1([CH3])[O]C(=O)CCN=Cc2c(ccc3ccccc23)[O][Sn]([CH3])([CH3])[O]C(=O)CCN=Cc2c(ccc3ccccc23)[O]1" ?
active

====

- METHOD SUMMARY: NCI Yeast Anticancer Drug Screen. Data for the bub3 strain (AID 167)
- CONDITION NOTES: S. cerevisiae bub3 mutant strain, at 5.0 µM (retest, dose inferred, filed as 0.5)
The panel holds about 79,000 compounds, 15% with a hit somewhere; the sample as a whole holds those more often. Calls of active or inactive are those of the source. Rule as the data show it: active = growth inhibition above about 70%; inactive = the rest.
Allowed answers: TRUE = active, FALSE = inactive

Please review the following examples before continuing.
O=[N+]([O-])/C(Cl)=C(\Nc1ccccc1)C(Cl)=C(Cl)Cl; TRUE
Nc1nnc(-c2cc(=O)c3cc(Cl)ccc3o2)s1; FALSE

What was the test verdict on C=CCOC(=O)CC(OC(C)=O)C(CC)CC(C)C (centres undefined) ?
FALSE

What was the test verdict on "O=[N+]([O-])c1ccc(/C=N\OCc2cscn2)cc1" ?
FALSE

What was the test verdict on "CCOC(=O)Cc1cc(=O)oc2c(CN3CCN(c4ccc(C)cc4)CC3)c(O)ccc12" ?
FALSE

What was the test verdict on "Nc1ncnc(N2CCOCC2)c1N" ?
FALSE

What was the test verdict on CCC1(CC(=O)O)OCCc2c1[nH]c1c(C)c(Cl)ccc21 (centres undefined) ?
FALSE

What was the test verdict on CN(Cc1cc(Cl)cc(Cl)c1)CC(C(=O)c1ccccc1)c1ccccc1 (centres undefined) ?
FALSE

What was the test verdict on "CN(C)CCCc1ccc2oc3ccccc3c2c1" ?
FALSE

What was the test verdict on "CCCCNc1ncc(OCC)c(NCCCC)n1" ?
FALSE

What was the test verdict on "Cc1ccc(NC(=O)CSC(N)=O)cc1C" ?
FALSE

What was the test verdict on "O=c1c(-c2ccccc2)c1-c1ccccc1" ?
FALSE

What was the test verdict on C1=C(c2ccccc2)C(c2ccccc2)C(c2ccccc2)C/C1=N/OCCN1CCCC1 (centres undefined) ?
FALSE

What was the test verdict on "CC(C)(C)N=C=NC(c1ccccc1)(c1ccccc1)c1ccccc1" ?
FALSE

What was the test verdict on CC(C)C1=CC(=O)C(C)(C2C(O)CC3(C)C4CC=C5C(CCC(O)C5(C)C)C4(C)C(=O)CC23C)O1 (centres undefined) ?
TRUE

What was the test verdict on "O=C(Cc1nc2ccccc2s1)Nc1ccc2ccccc2c1" ?
FALSE

What was the test verdict on "Cc1cccc(Cc2ccc(Cl)cc2)c1O" ?
FALSE

What was the test verdict on "Oc1c(Cl)cc(Cl)cc1C=NCCSc1ccc(Cl)cc1" ?
FALSE

====

- METHOD SUMMARY: NCI Yeast Anticancer Drug Screen. Data for the bub3 strain (AID 167)
- CONDITION NOTES: S. cerevisiae bub3 mutant strain, at 50.0 µM, stronger effect = higher value
The panel holds about 79,000 compounds, 15% with a hit somewhere; the sample as a whole holds those more often.
Listing of recorded growth inhibition by entry.
API: value field is a number in %; no unit string.

Example cases with answers are listed next.
O=C1C=CC(=O)N1C12CC3CC(CC(C3)C1)C2; 91.8
CC1=C[P+](c2ccccc2)(c2ccccc2)C=C(c2ccccc2)O1; 90.4
COc1ccccc1C(C)c1ccc2ccccc2c1C(=O)O (stereo not drawn); 93.4
c1cc(Nc2ccc(Nc3ccc(CN4CCCCC4)cc3)cc2)ccc1CN1CCCCC1; 89.2
CN(C)c1ccc(/C=N/N=C(/C#N)[S][Sn]([S]/C(C#N)=N/N=C/c2ccc(N(C)C)cc2)([c]2ccccc2)[c]2ccccc2)cc1; 95.7

Entry "COc1cc2c[n+](C)c3c4cc(OC)c(OCc5ccccc5)cc4c(OCc4ccccc4)cc3c2cc1OC" has what growth inhibition?
93.5

Entry "O=[N+]([O-])c1ccc(C2=Nn3cnnc3SC2)o1" has what growth inhibition?
59.3

====

- METHOD SUMMARY: NCI Yeast Anticancer Drug Screen. Data for the mec2-1 strain (AID 157)
- CONDITION NOTES: S. cerevisiae mec2-1 strain, at 5.0 µM (retest, dose inferred, filed as 0.5), stronger effect = higher value
About 79,000 compounds went through this panel and 15% of them were active in at least one assay; those are over-represented in the sample as a whole.
Listing of recorded growth inhibition by entry.
API: value field is a number in %; no unit string.

Nc1ccccc1SC(C[N+](=O)[O-])c1ccc2c(c1)OCO2 (stereo unspecified); 72
Cc1cc(C)c(O)c(C2CC3CCC2(C)C3(C)C)c1 (stereo unspecified); 1

Entry COc1ccc2c(c1)C1(C)CCCC(C)(C(=O)O)C1CC2 (stereo unspecified) has what growth inhibition?
-7

Entry "Clc1sc2ccccc2c1Cl" has what growth inhibition?
-5

====

- METHOD SUMMARY: NCI Yeast Anticancer Drug Screen. Data for the bub3 strain (AID 167)
- CONDITION NOTES: S. cerevisiae bub3 mutant strain, at 50.0 µM
- Description: Growth inhibition of yeast strains with defined genetic alterations is measured as a screen for potential anti-cancer activity. Selected strains with alterations in DNA damage repair or cell cycle control were exposed to compounds and growth inhibition was measured relative to vehicle treated controls. The strain used in this assay is bub3
Compounds without any hit were thinned out: in the full panel of roughly 79,000, 15% have a hit. The source made the active and inactive calls. No stated cut-off is given here; in the data, active means growth inhibition above about 70%; inactive means the rest.
Allowed answers: 1 (yes) for active, 0 (no) for inactive

O=C(CCC1OCCO1)Nc1cc(NCc2ccccc2)ccc1OCc1ccccc1; 0 (no)

What was the test verdict on "CCOc1ccc(C(OC)OC)cc1[N+](=O)[O-]" ?
0 (no)

What was the test verdict on CC(=O)OC1CCC2(C)C(CCC3C2CCC2(C)C4CCC32OC(=O)C4CC(=O)O)C1 (stereo unspecified) ?
1 (yes)

What was the test verdict on CCCCOC(=O)C(C)OC(=O)NNc1ccccc1 (stereo unspecified) ?
1 (yes)

What was the test verdict on Cc1ccccc1C(CC(=O)O)C(C)c1ccccc1 (stereo unspecified) ?
1 (yes)

What was the test verdict on "Cc1ccc(N2C(=O)CSC2=S)cc1Br" ?
1 (yes)

====

Listing of recorded growth inhibition by entry.
- METHOD SUMMARY: NCI Yeast Anticancer Drug Screen. Data for the mlh1 rad18 strain (AID 175)
- CONDITION NOTES: S. cerevisiae mlh1 rad18 strain growth inhibition; at 5.0 µM (retest, dose inferred, filed as 0.5); stronger effect = higher value
- Protocol: Growth inhibition of yeast strains with defined genetic alterations is measured as a screen for potential anti-cancer activity. Selected strains with alterations in DNA damage repair or cell cycle control were exposed to compounds and growth inhibition was measured relative to vehicle treated controls. The strain used in this assay is mlh1 rad18
Compounds without any hit were thinned out: in the full panel of roughly 79,000, 15% have a hit.
API: value field is a number in %; no unit string.

Example cases with answers are listed next.
NNC(=O)N/N=C(/CC1(O)C(=O)Nc2ccc(Br)cc21)c1ccccc1 (configuration not stated); 0
c1ccc2c(c1)Cc1cc3ccccc3nc1-2; 28
CC12CCC3C(CCC4CC(O)CCC43C)C1CC=CO2 (configuration not stated); 24
O=C(O)CCc1ccc2ccccc2c1; -4

# context switch: different compound, same growth inhibition
Entry "Clc1cc2ccccc2c2ccccc12" has what growth inhibition?
-1

====

- METHOD SUMMARY: NCI Yeast Anticancer Drug Screen. Data for the cln2 rad14 strain (AID 165);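 further: 0% = growth equal to vehicle treated cultures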
- CONDITION NOTES: S. cerevisiae cln2 rad14 strain, at 50.0 µM
- Procedure: Growth inhibition of yeast strains with defined genetic alterations is measured as a screen for potential anti-cancer activity. Selected strains with alterations in DNA damage repair or cell cycle control were exposed to compounds and growth inhibition was measured relative to vehicle treated controls. The strain used in this assay is cln2 rad14
This is part of a sample that, as a whole, favours compounds with a hit. Of some 79,000 tested, about 15% had one in any assay. Activity calls are given as the source filed them. Cut-off read from the data, not from the text of the source: active = growth inhibition above about 70%; inactive = the rest.
Allowed answers: true (1) (active), false (0) (inactive)

Please review the following examples before continuing.
C/C(=C\c1ccccc1Cl)c1ccccn1; false (0)
CC(C)c1ccc2c(c1)CC[C@H]1[C@](C)(CN)CCC[C@]21C; true (1)
O=C(O)c1ccc(CSc2ccc(Cl)cc2)cc1; false (0)

What was the test verdict on O=[N+]([O-])C1CCCC(C2=CSC3CCCCC3N2)C1 (stereo not drawn) ?
false (0)

What was the test verdict on Cc1cc(=O)[nH]c(NN2C(Cl)C(=O)C2c2ccc(O)cc2)n1 (stereo not drawn) ?
false (0)

What was the test verdict on "CCCCC#C[I+]c1ccccc1" ?
true (1)

What was the test verdict on "CCCOC(=O)CSC#N" ?
true (1)

What was the test verdict on "CCN(CC)CCOc1cccc2c1C(=O)c1c(O)cccc1C2=O" ?
true (1)

What was the test verdict on "OC(c1ccccc1)(c1ccccc1)C1CCCCC1" ?
false (0)

What was the test verdict on "N=c1n(CC(=O)NC23CC4CC(CC(C4)C2)C3)c2ccccc2n1Cc1ccc(Cl)cc1" ?
true (1)

What was the test verdict on "[O-]/[N+](O)=C\c1ccccn1" ?
false (0)

What was the test verdict on "CC(C)NC(=O)OCCN=C1c2ccccc2CCc2ccccc21" ?
false (0)

What was the test verdict on O=C1c2ccccc2SCC12OC2c1ccc(Cl)cc1 (stereo not drawn) ?
true (1)
